- experimentalSystem: human GLP-1 receptor (human, UniProt P43220 24-463)
- procedureSummary: cell-based or functional assay
Numbered stars: 1 amine (or outer) side, 2 acyl side, 3 side chain; on linkers, the order of the positions; unused ones are H or OH. Square brackets hold non-standard residues; d marks the D form. Side chains are listed from the residue outwards. Ends that are not written are not given here. γGlu = O=C(O)[C@H](CCC(=O)[*:2])N[*:1]; X70 = not defined here; x53 = not defined here; Aib = CC(C)(N)C(=O)O
Response field label: string, one of T (EC50 hGLP-1R (cAMP) strictly below 0.02 nM) or F.

Consider the following illustrative entries.
{"columns": ["binder", "answerLabel"],
 "data": [
  ["HXQGTFTSDLSKQKDSRRAQDFIEWLKNGGPSSGAPPPS (dSer at 2; K(γE-x72) at 14; C-terminal NH2) [SEQ ID NO: 91]", "T"],
  ["HXQGTFTSDLSKQKESRRAQDFIEWLKNGGPSSGAPPPK (dSer at 2; K(γE-x53) at 14; C-terminal NH2) [SEQ ID NO: 113]", "T"],
  ["H[Aib]QGTFTSDLSKQK([γGlu-x53])ESKAAQDFIEWLKAGGPSSGAPPPS-NH2 (reading uncertain) [SEQ ID NO: 25]", "T"],
  ["HXQGTFTSDLSKQKESKAAQDFIEWLKAGGPSSGAPPPS (dSer at 2; K(x53) at 14; C-terminal NH2) [SEQ ID NO: 32]", "T"],
  ["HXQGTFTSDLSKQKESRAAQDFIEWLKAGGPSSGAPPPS (dSer at 2; K(γE-x77) at 14; C-terminal NH2) [SEQ ID NO: 60]", "F"],
  ["HXQGTFTSDLSKQKESRRAQDFIEWLKEGGPSSGRPPPS (dSer at 2; K(γE-x53) at 14; C-terminal NH2) [SEQ ID NO: 82]", "T"]
]}

[in] Is the reported EC50 hGLP-1R (cAMP) for HXQGTFTSDLSKQKDSRRAQDFIEWLKDGGPSSGAPPPS (dSer at 2; K(x53) at 14; C-terminal NH2) [SEQ ID NO: 81] strictly below 0.02 nM?
[out] F

[in] Consider the binder HXQGTFTSDLSKQKESRRAQDFIEWLKNGGPSSGAPPPK (dSer at 2; K(x53) at 14; C-terminal NH2) [SEQ ID NO: 114] . Is its EC50 hGLP-1R (cAMP) strictly less than 0.02 nM?
[out] F

[in] Regarding HXQGTFTSDLSKQKESRAAXLFIEWLKAGGPSSGAPPPS (dSer at 2; K(γE-x53) at 14; Aib at 20; C-terminal NH2) [SEQ ID NO: 46] , kindly confirm whether its EC50 hGLP-1R (cAMP) is beneath 0.02 nM.
[out] T

[in] API: query returns whether the binder falls strictly under 0.02 nM in EC50 hGLP-1R (cAMP). Query: HXQGTFTSDLSKQKESRRAXDFIEWLKAGGPSSGAPPPS (dSer at 2; K(γE-x53) at 14; Aib at 20; C-terminal NH2) [SEQ ID NO: 75]
[out] T

[in] # strict comparison: is reported EC50 hGLP-1R (cAMP) < 0.02 nM? input = H[Aib]QGTFTSDLSKQK([γGlu-X70])DEQRAKDFIEWLKSGGPSSGAPPPS-NH2 (reading uncertain) [SEQ ID NO: 175]
[out] T

[in] Problem: For the binder HXQGTFTSDLSKQKDEQRAKDFIEWLKAXGPSSGAPPPS (Aib at 2; K(γE-x70) at 14; dAla at 29; C-terminal NH2) [SEQ ID NO: 199] , is EC50 hGLP-1R (cAMP) under 0.02 nM?
[out] T
